# Test system: gluten-reactive T cells
# PROTOCOL_NOTES: 96-well plate whole blood cytokine release, IP-10 by MAGPIX multiplex bead assay
# Assay type: cell-based, human
# RECORDED_CONDITIONS: Subject 6; after oral gluten challenge; Max. 5863 pg/mL
Non-standard residues stand in square brackets, D forms with d. pGlu = O=C1CC[C@@H](C(=O)O)N1
MEASURED_PARAMETER: Percent of maximal response to individual gluten peptides, IP-10

In the examples that follow, each entry is paired with its recorded Percent of maximal response to individual gluten peptides, IP-10.
[
  {
    "SUBSTANCE": "(pE)QPFPQPEQPFSQQ-amide ([pGlu]QPFPQPEQPFSQQ-NH2; SMILES NC(=O)CC[C@H](NC(=O)[C@H](CCC(N)=O)NC(=O)[C@H](CO)NC(=O)[C@H](Cc1ccccc1)NC(=O)[C@@H]1CCCN1C(=O)[C@H](CCC(N)=O)NC(=O)[C@H](CCC(=O)O)NC(=O)[C@@H]1CCCN1C(=O)[C@H](CCC(N)=O)NC(=O)[C@@H]1CCCN1C(=O)[C@H](Cc1ccccc1)NC(=O)[C@@H]1CCCN1C(=O)[C@H](CCC(N)=O)NC(=O)[C@@H]1CCC(=O)N1)C(N)=O) [Peptide 7]",
    "SYSTEM_NAME": "gluten-reactive T cells",
    "RECORDED_RESULT": "0 % of max"
  },
  {
    "SUBSTANCE": "(pE)QPFPEQPEQIIPQQP-amide ([pGlu]QPFPEQPEQIIPQQP-NH2; SMILES CC[C@H](C)[C@H](NC(=O)[C@H](CCC(N)=O)NC(=O)[C@H](CCC(=O)O)NC(=O)[C@@H]1CCCN1C(=O)[C@H](CCC(N)=O)NC(=O)[C@H](CCC(=O)O)NC(=O)[C@@H]1CCCN1C(=O)[C@H](Cc1ccccc1)NC(=O)[C@@H]1CCCN1C(=O)[C@H](CCC(N)=O)NC(=O)[C@@H]1CCC(=O)N1)C(=O)N[C@H](C(=O)N1CCC[C@H]1C(=O)N[C@@H](CCC(N)=O)C(=O)N[C@@H](CCC(N)=O)C(=O)N1CCC[C@H]1C(N)=O)[C@@H](C)CC) [Peptide 12]",
    "SYSTEM_NAME": "gluten-reactive T cells",
    "RECORDED_RESULT": "0 % of max"
  },
  {
    "SUBSTANCE": "(pE)SGEGSFQPSQENPQ-amide ([pGlu]SGEGSFQPSQENPQ-NH2; SMILES NC(=O)CC[C@H](NC(=O)[C@@H]1CCCN1C(=O)[C@H](CC(N)=O)NC(=O)[C@H](CCC(=O)O)NC(=O)[C@H](CCC(N)=O)NC(=O)[C@H](CO)NC(=O)[C@@H]1CCCN1C(=O)[C@H](CCC(N)=O)NC(=O)[C@H](Cc1ccccc1)NC(=O)[C@H](CO)NC(=O)CNC(=O)[C@H](CCC(=O)O)NC(=O)CNC(=O)[C@H](CO)NC(=O)[C@@H]1CCC(=O)N1)C(N)=O) [Peptide 9]",
    "SYSTEM_NAME": "gluten-reactive T cells",
    "RECORDED_RESULT": "0 % of max"
  }
]

Find the recorded Percent of maximal response to individual gluten peptides, IP-10 belonging to (pE)PQPYPEQPQPFPQQ-amide ([pGlu]PQPYPEQPQPFPQQ-NH2; SMILES NC(=O)CC[C@H](NC(=O)[C@H](CCC(N)=O)NC(=O)[C@@H]1CCCN1C(=O)[C@H](Cc1ccccc1)NC(=O)[C@@H]1CCCN1C(=O)[C@H](CCC(N)=O)NC(=O)[C@@H]1CCCN1C(=O)[C@H](CCC(N)=O)NC(=O)[C@H](CCC(=O)O)NC(=O)[C@@H]1CCCN1C(=O)[C@H](Cc1ccc(O)cc1)NC(=O)[C@@H]1CCCN1C(=O)[C@H](CCC(N)=O)NC(=O)[C@@H]1CCCN1C(=O)[C@@H]1CCC(=O)N1)C(N)=O) [Peptide 8] and report it.
2 % of max
